# Target System: T1, human TMEM106B (human, UniProt Q9NUM4 2-274)
# T1 construct: Full-length, on transiently transfected HEK293 cells, or natively expressed on HeLa, U251 and A549 cells; also called huTMEM106B; huTMEM
# Assay Notes: FACS A549, 10 ug/ml
// reported MFI for each item listed
Experimental Endpoint: MFI

| Binder | Endpoint Value |
| --- | --- |
| anti-TMEM106B antibody TM-11 (antibody, V domains shown) VH: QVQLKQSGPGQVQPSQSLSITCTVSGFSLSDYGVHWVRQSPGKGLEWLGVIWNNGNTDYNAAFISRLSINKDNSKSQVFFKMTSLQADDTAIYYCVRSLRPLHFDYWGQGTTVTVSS VL: DIVMTQSPSSLTMSVGQKVTMHCKSSQSLLNSNNLQNYLAWYQQKPGQSPTLLVYFASIRESGVPDRFIGSGSGTDFTLTISSVQAEDLADYFCQQHYNTPFTFGSGTKLEIR | 5580 |
| anti-TMEM106B antibody TM-45 (antibody, V domains shown) VH: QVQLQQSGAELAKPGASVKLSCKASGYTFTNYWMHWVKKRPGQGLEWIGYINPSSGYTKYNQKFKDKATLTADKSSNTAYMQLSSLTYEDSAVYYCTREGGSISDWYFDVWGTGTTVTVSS VL: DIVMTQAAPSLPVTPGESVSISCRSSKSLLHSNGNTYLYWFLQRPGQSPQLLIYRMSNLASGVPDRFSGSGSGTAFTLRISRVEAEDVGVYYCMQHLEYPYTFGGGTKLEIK | 3240 |
| anti-TMEM106B antibody TM-26 (antibody, V domains shown) VH: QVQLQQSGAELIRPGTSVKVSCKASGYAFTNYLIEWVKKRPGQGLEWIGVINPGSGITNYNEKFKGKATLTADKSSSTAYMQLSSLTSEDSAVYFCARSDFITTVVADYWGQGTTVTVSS VL: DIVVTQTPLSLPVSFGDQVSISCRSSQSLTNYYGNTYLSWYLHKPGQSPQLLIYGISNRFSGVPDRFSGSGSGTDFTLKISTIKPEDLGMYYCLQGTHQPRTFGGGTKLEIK | 509 |
